// provenance: patent US4455441A

# Test system: Reticulitermes flavipes
# measurement_description: Bioassay of fluoroalkanols (Petri dish assay), termite toxicity
# Assay type: in vivo, Reticulitermes flavipes Kollar
# assay_context: quantity impregnated in filter pads required to cause 50% mortality at 3 days
Measured Median Lethal-dose, listed per entry.
property: Median Lethal-dose

compound="OCC/C=C\\CCCCCCCCF [12-Fluoro-(Z)-3-dodecen-1-ol]" recorded_measurement=".0093 mg/dish"
compound="OCC/C=C\\C/C=C\\CCCCCF [12-fluoro-(Z),(Z)-3,6-dodecadien-1-ol]" recorded_measurement=".012 mg/dish"
compound="OCC/C=C\\CCCCCCF [10-fluoro-(Z)-3-decen-1-ol]" recorded_measurement=".0095 mg/dish"
compound="OCCCCCCCCCCCCF [F(CH2)11 CH2 OH, 12-fluorododecan-1-ol]" recorded_measurement=".0077 mg/dish"
compound="OCCCCCCCCCCCF [F(CH2)10 CH2 OH]" recorded_measurement=".062 mg/dish"
compound="OCCCCCCCC/C=C/CCCCCCF [16-fluoro-Z/E 9-hexadecen-1-ol]" recorded_measurement="0.024 mg/dish"
